Measured values drawn from PubChem BioAssay (NCI) for this set.

# assay_method_text: NCI Yeast Anticancer Drug Screen. Data for the rad50 strain (AID 155);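 also: 0% = growth of vehicle-only cultures of the same strain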
# assay_conditions: S. cerevisiae rad50 strain growth inhibition; at 50.0 µM
About 79,000 compounds went through this panel and 15% of them were active in at least one assay; those are over-represented in the sample as a whole. Activity calls are given as the source filed them. Rule as the data show it: active = growth inhibition above about 70%; inactive = the rest.
Possible outcomes: y (active), n (inactive)

>>> category_label("Cc1ccc(N2C(=O)CS/C2=C(\\C#N)c2nc3ccccc3[nH]2)cc1")
"n"
>>> category_label("CCOC(=O)c1ccc(N(CC(=O)O)S(=O)(=O)c2ccc(C)cc2)s1")
"n"
>>> category_label("CC(=O)/C=C(\\O)c1c(C)[nH]c2ccccc12")
"n"
>>> category_label("O=C(O)CCNc1ccccc1C(=O)O")
"n"
>>> category_label("Cc1ccc2nc(-c3ccc(Cl)cc3Cl)oc(=O)c2c1")
"n"
>>> category_label("CN(C)CCCNC(=O)CCNC(=O)c1cc(NC(=O)c2cc(NC(=O)c3cc(NC(=O)c4nccn4C)cn3C)cn2C)cn1C")
"n"
>>> category_label("CSc1nc(SC)c(Nc2cccc(C)c2)c(SC)n1")
"n"
>>> category_label("COC(=O)c1ccc(CSc2ccccc2NC(=S)Nc2cccc(C(F)(F)F)c2)o1")
"n"
>>> category_label("O=C1CCCS(=O)(=O)CCC1")
"n"
>>> category_label("Cn1c(=O)c2[nH]c(N/N=N/c3nncs3)nc2n(C)c1=O")
"n"
>>> category_label("NC(=O)C(O)C(O)CO (centres undefined)")
"n"
>>> category_label("O=C(NCCCl)Nc1[nH]c(=O)ncc1I")
"n"
>>> category_label("CCC([NH-])(CC)C[NH-].[Cl][Pt+2][Cl]")
"n"
>>> category_label("CCOC(=O)CSc1nc(-c2ccc(Cl)cc2)c(C#N)c(=O)[nH]1")
"n"
>>> category_label("C=C1CC(CC(=O)C(C)CC2CC(=C)C(=O)O2)OC1=O (centres undefined)")
"n"
>>> category_label("C/C(Nc1ccc(F)cc1)=C1/CCOC1=O")
"n"
>>> category_label("CC(=O)/C=C\\C(=O)NNS(=O)(=O)c1ccc(C)cc1")
"n"
>>> category_label("CCC(C(=O)O)C1=CCCCC1 (centres undefined)")
"n"
>>> category_label("O=C(Nc1ccccc1C(=O)O)C(=O)C(C(=O)c1ccccc1-c1ccccc1)C1OC(=O)c2ccccc21 (centres undefined)")
"n"
>>> category_label("CN(C)c1ccc(C(Cc2ccccc2)C2NC(=S)NC2=O)cc1 (centres undefined)")
"n"
>>> category_label("CCC(=O)C(C)C(=O)N(CC(C)C)CC(C)C (centres undefined)")
"n"
>>> category_label("O=C1c2ccccc2C(=O)N1CNc1ccccc1Cl")
"n"
>>> category_label("Cc1ccc(CCCCCOc2ccc(C3=NCCO3)cc2)s1")
"n"
>>> category_label("O=c1[nH]c(Nc2cccc(CO)c2)nc2nc[nH]c12")
"n"
>>> category_label("COc1cc(O)c(C(C)=O)c(OC)c1")
"n"
>>> category_label("CCCCOC(=O)CCc1nc2c([nH]1)c(=O)n(C)c(=O)n2C")
"n"
>>> category_label("Nc1ccccc1C(=O)CCc1c[nH]c2ccccc12")
"n"
>>> category_label("CCC1(C)OCC(CCCCO)O1 (centres undefined)")
"n"
>>> category_label("Nc1ccc2ccccc2c1S(=O)(=O)O")
"n"
>>> category_label("O=c1[nH]ncc2ccc([N+](=O)[O-])cc12")
"n"
>>> category_label("COC(=O)N(c1ccccc1)c1ccccn1")
"n"
>>> category_label("CCOC(=O)C(C)(Br)C(Br)c1ccc([N+](=O)[O-])cc1 (centres undefined)")
"y"
>>> category_label("Cc1ccoc1")
"n"
>>> category_label("CCOC(=O)c1c(/N=C/c2cc(Br)ccc2O)sc2c1CCCC2")
"n"
>>> category_label("CCCCCCCCCCCC(=O)N/N=C(\\C)c1cccc2ccccc12")
"y"
>>> category_label("Cc1cc2ccccc2n1S(=O)(=O)c1ccccc1")
"n"
>>> category_label("CC(CCc1ccccc1)NC(=O)c1ccccc1 (centres undefined)")
"n"
>>> category_label("CC(C)C1CCC2(C)C(CCC3C4(C)CCCC32OC4=O)C1 (centres undefined)")
"n"
>>> category_label("CCN(CC)CCNc1c(C)cccc1Cl")
"n"
>>> category_label("S=c1nc(-c2ccnc(-c3nc(=S)[nH][nH]3)c2)[nH][nH]1")
"n"
>>> category_label("COc1ccc(-n2c(=O)c(N=Nc3ccc(Cl)cc3)c(O)n(-c3ccc(I)cc3)c2=S)cc1")
"n"
>>> category_label("O=C(NNC1=NCCN1)c1ccco1")
"n"
>>> category_label("COC(=O)NS(=O)(=O)C1=Cc2cccc3cccc1c23")
"n"
>>> category_label("O=C(O)c1oc2cccc3c2c1CCC3")
"n"
>>> category_label("CCCC(CCC)C(=O)[O-].CCCC(CCC)C(=O)[O-].CCCC(CCC)C(=O)[O-].CCCC(CCC)C(=O)[O-].[Cu+2].[Cu+2]")
"n"
>>> category_label("O=[N+]([O-])c1cccc(/C=C/c2cc(N(CCO)CCO)c3ccccc3n2)c1")
"n"
>>> category_label("C1=C(Oc2ccccc2)C2CC1C1CCCC21 (centres undefined)")
"n"
>>> category_label("O=C1OI(OI2OC(=O)c3ccccc32)c2ccccc21 (tested in a mixture with another compound)")
"n"
>>> category_label("CCOC(=O)/C(C#N)=C/c1ccccc1OC")
"n"

* * *

Below, each entry is listed with its recorded growth inhibition.
# assay_method_text: NCI Yeast Anticancer Drug Screen. Data for the mec2-1 strain (AID 157)
# assay_conditions: S. cerevisiae mec2-1 strain, at 50.0 µM, hits give high values
The panel holds about 79,000 compounds, 15% with a hit somewhere; the sample as a whole holds those more often.
quantity: growth inhibition (%)

>>> quantitative_readout("O=C(Nc1ccc(Cl)cc1)c1ccc(C(=O)Nc2ccc(Cl)cc2)cc1")
-26.4
>>> quantitative_readout("O=C1N=C(C=c2ccc(=Cc3[nH]c(=O)n(CN4CCCCC4)c3O)cc2)C(=O)N1CN1CCCCC1")
-6.2
>>> quantitative_readout("C[N+](C)(C)C=Nc1cccc2c1CCCC2")
-37.8
>>> quantitative_readout("N#CC(C#N)=CN1CCCCC1")
-4.65
>>> quantitative_readout("C[n+]1ccc(Nc2ccc(NC(=O)c3ccc(N)cc3)cc2)cc1")
20.4
>>> quantitative_readout("CS(=O)CC(=N\\N)/C(CS(C)=O)=N/N (stereo unspecified)")
-20.8
>>> quantitative_readout("CCOC(=O)c1ccc(N(CC(=O)O)S(=O)(=O)c2ccc(C)cc2)s1")
-1
>>> quantitative_readout("CC(C)OCN1COCN=C1NC#N")
12.2
>>> quantitative_readout("COc1ccc(N=C2C(=Nc3ccc(OC)cc3)N(S(=O)(=O)c3ccccc3)C(=S)N2c2ccc(OC)cc2)cc1")
-35
>>> quantitative_readout("O=C(O)C(Cc1ccccc1)NC(c1ccc(Cl)cc1)P(=O)(O)O (stereo unspecified)")
7.95
>>> quantitative_readout("C[N+]1(C)N=C(c2ccccc2)C=C1[O-]")
-9.75

* * *

# assay_method_text: NCI Yeast Anticancer Drug Screen. Data for the mlh1 rad18 strain (AID 175)
# assay_conditions: S. cerevisiae mlh1 rad18 strain growth inhibition; at 50.0 µM; hits give high values
Compounds without any hit were thinned out: in the full panel of roughly 79,000, 15% have a hit.
quantity: growth inhibition (%)

>>> quantitative_readout("COc1ccc(CNc2cc(OC)c(OC)c(OC)c2)cc1")
-33.1
>>> quantitative_readout("CC(=O)Nc1ccc(S(=O)(=O)N/N=C/C(=O)O)cc1")
-16.6
>>> quantitative_readout("Cc1ccccc1OCC(O)COC(=O)CCS(=O)(=O)O (stereo unspecified)")
-6.3
>>> quantitative_readout("COc1cccc(C2CC(c3cc(OC)c(OC)c(OC)c3)CC(c3cccc(OC)c3)N2)c1 (stereo unspecified)")
5.7
>>> quantitative_readout("COc1cc(/C=N/N2CC(=O)N(c3ccccc3)CC2=O)cc(OC)c1")
13.1
>>> quantitative_readout("ClCCCCCc1c2nc(c(CCCCCCl)c3ccc([nH]3)c(CCCCCCl)c3ccc([nH]3)c(CCCCCCl)c3nc1C=C3)C=C2")
-47.4
>>> quantitative_readout("Cc1ccc2ccccc2[n+]1CC(=O)c1ccc2c(c1)OCO2")
10.7
>>> quantitative_readout("Cc1nc2c(Cl)cc(Cl)cc2c(Cl)c1CCCl")
45.6
>>> quantitative_readout("CCCC1(c2ccccc2)OCC(CO)O1 (stereo unspecified)")
4.25
>>> quantitative_readout("CCN(CC)CCCCCCCNc1nccc2ccccc12")
35.4
>>> quantitative_readout("Cc1c(Br)c(C)[n+]([O-])n1O")
0.2
